Where do these numbers come from? They come from patent US20220387487A1.

Tested on: FMC63
Sequence (as listed by the source): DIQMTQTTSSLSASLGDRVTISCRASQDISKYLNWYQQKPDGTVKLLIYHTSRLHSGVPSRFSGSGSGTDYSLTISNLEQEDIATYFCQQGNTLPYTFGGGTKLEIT
Sequence (as listed by the source): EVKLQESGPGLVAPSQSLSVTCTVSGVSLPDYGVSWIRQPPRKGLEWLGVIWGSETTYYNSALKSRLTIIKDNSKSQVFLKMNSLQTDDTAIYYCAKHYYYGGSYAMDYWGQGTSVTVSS
Assay: CD19 variant binding to anti-CD19 antibody FMC63 (score)
Settings: Table 1B, CD19 triple mutants
I'd be grateful if you could share measured FMC63 Binding Score for these entries.
No unit in the answer, only the number.

Problem: Fill blank: measured FMC63 Binding Score of the molecule W62D/F64V/F66R: CD19 variant (protein) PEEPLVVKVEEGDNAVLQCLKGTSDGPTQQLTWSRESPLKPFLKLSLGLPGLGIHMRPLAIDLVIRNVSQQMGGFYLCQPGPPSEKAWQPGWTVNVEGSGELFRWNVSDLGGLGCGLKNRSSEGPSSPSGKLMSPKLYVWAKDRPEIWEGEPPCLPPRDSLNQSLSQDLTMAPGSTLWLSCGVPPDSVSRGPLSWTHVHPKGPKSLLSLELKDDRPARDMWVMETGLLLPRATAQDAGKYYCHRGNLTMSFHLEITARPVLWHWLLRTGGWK is ____.
Result: 12.6

Problem: Fill blank: measured FMC63 Binding Score of the molecule W62T/F64V/F66F: CD19 variant (protein) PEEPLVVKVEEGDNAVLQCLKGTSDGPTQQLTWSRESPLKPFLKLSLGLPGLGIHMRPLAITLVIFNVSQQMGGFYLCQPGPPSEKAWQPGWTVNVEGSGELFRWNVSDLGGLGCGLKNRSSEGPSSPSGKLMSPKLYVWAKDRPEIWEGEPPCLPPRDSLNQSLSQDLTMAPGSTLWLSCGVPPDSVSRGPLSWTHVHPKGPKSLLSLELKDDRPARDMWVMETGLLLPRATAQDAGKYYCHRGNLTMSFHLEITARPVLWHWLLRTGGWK is ____.
Result: 13.6

Problem: Fill blank: measured FMC63 Binding Score of the molecule W62S/F64F/F66N: CD19 variant (protein) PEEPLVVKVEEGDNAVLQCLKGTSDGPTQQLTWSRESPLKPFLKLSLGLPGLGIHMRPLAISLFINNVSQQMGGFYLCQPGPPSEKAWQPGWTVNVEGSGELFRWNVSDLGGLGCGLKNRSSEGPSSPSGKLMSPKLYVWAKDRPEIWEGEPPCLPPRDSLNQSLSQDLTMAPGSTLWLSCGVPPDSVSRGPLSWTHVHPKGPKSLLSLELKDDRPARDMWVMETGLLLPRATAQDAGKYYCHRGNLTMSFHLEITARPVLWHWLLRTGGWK is ____.
Result: 15.6

Problem: Fill blank: measured FMC63 Binding Score of the molecule W62R/F64A/F66F: CD19 variant (protein) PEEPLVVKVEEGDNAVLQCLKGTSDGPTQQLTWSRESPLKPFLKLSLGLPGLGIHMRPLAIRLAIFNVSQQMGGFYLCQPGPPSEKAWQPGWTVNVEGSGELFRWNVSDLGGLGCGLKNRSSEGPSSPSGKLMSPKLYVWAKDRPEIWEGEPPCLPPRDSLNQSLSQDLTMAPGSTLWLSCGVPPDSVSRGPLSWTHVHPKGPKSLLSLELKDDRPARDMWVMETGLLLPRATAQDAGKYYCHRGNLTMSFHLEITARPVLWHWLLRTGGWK is ____.
Result: 15.9
